# IC50 annotations
- Target or test system: hQC (Homo sapiens, UniProt Q16769)
- Sequence (Q16769 29-361): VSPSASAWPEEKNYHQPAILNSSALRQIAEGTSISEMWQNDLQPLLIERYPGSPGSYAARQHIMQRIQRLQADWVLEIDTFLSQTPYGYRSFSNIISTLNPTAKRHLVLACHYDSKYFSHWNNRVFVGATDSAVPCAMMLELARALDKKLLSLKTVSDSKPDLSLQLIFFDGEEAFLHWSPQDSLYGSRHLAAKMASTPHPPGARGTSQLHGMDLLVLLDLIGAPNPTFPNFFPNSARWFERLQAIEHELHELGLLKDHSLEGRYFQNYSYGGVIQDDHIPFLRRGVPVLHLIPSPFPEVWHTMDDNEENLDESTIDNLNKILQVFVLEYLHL
- Experiment summary: Fluorometric assay of glutaminyl cyclase (QC) inhibition, H-Gln-βNA or H-Gln-AMC substrate
- Type: biochemical
- Condition: read-out: IC50
Reported property: IC50 (µM)

{"columns": ["Molecule", "Target or test system", "Reported property", "Unit abbrev", "Observed result"],
 "data": [
  ["O=C1N/C(=N/Cn2nnc3ccccc32)C(c2cc(F)cc(F)c2)N1c1ccc2[nH]cnc2c1 (stereo not shown) [Compound 148]", "hQC (Homo sapiens, UniProt Q16769)", "IC50", "µM", 3.1],
  ["S=C1N/C(=N\\c2ccccc2Br)C(c2ccc3ccccc3c2)N1c1ccc2nc[nH]c2c1 (stereo not shown) [Compound 264]", "hQC (Homo sapiens, UniProt Q16769)", "IC50", "µM", 8.5],
  ["O=C1N/C(=N/CCc2c[nH]c3ccccc23)C(c2ccsc2)N1CCCn1ccnc1 (stereo not shown) [Compound 47]", "hQC (Homo sapiens, UniProt Q16769)", "IC50", "µM", 4],
  ["O=C1N/C(=N\\C2CCCC2)C(c2ccc(Cl)c(F)c2)N1c1ccc2[nH]cnc2c1 (stereo not shown) [Compound 318]", "hQC (Homo sapiens, UniProt Q16769)", "IC50", "µM", 0.004],
  ["O=C1N/C(=N\\c2ccc3c(c2)OCCO3)C(c2cccc(Br)c2)N1c1ccc2nc[nH]c2c1 (stereo not shown) [Compound 334]", "hQC (Homo sapiens, UniProt Q16769)", "IC50", "µM", 0.4],
  ["O=C1N/C(=N/CCc2c[nH]c3ccccc23)C(c2cc(F)cc(F)c2)N1CCCn1ccnc1 (stereo not shown) [Compound 53]", "hQC (Homo sapiens, UniProt Q16769)", "IC50", "µM", 4],
  ["Cc1ccc2c(C3/C(=N\\CCCc4ccccc4)NC(=O)N3c3ccc4[nH]cnc4c3)c[nH]c2c1 (stereo not shown) [Compound 120]", "hQC (Homo sapiens, UniProt Q16769)", "IC50", "µM", 1.3],
  ["S=C1N/C(=N\\C(Cc2ccccc2)c2ccccc2)C(C2=CCCCC2)N1c1ccc2[nH]cnc2c1 (stereo not shown) [Compound 240]", "hQC (Homo sapiens, UniProt Q16769)", "IC50", "µM", 8.5],
  ["O=C1N/C(=N/CCc2c[nH]c3ccccc23)C(C2CC2)N1CCCn1ccnc1 (stereo not shown) [Compound 57]", "hQC (Homo sapiens, UniProt Q16769)", "IC50", "µM", 5.8],
  ["O=C1CCCN1CCC/N=C1\\NC(=S)N(c2ccc3[nH]cnc3c2)C1c1cc2ccccc2s1 (stereo not shown) [Compound 252]", "hQC (Homo sapiens, UniProt Q16769)", "IC50", "µM", 7.6],
  ["CCCCC1/C(=N/Cc2ccc(Cl)cc2)NC(=O)N1CCCn1ccnc1 (stereo not shown) [Compound 22]", "hQC (Homo sapiens, UniProt Q16769)", "IC50", "µM", 8.5],
  ["O=C1N/C(=N\\Cn2nnc3ccccc32)C(c2ccccc2F)N1c1ccc2[nH]cnc2c1 (stereo not shown) [Compound 337]", "hQC (Homo sapiens, UniProt Q16769)", "IC50", "µM", 1.3],
  ["O=C1CCCN1CCC/N=C1/NC(=O)N(c2ccc3[nH]cnc3c2)C1c1ccc2nsnc2c1 (stereo not shown) [Compound 155]", "hQC (Homo sapiens, UniProt Q16769)", "IC50", "µM", 0.004],
  ["CCCCC1/C(=N/Cc2cc(OC)c(OC)c(OC)c2)NC(=O)N1CCCn1ccnc1 (stereo not shown) [Compound 27]", "hQC (Homo sapiens, UniProt Q16769)", "IC50", "µM", 5.8],
  ["CC(/N=C1\\NC(=O)N(CCCn2ccnc2)C1c1ccccc1Cl)c1ccccc1 (stereo not shown) [Compound 10]", "hQC (Homo sapiens, UniProt Q16769)", "IC50", "µM", 6.2],
  ["O=C1N/C(=N\\C2CCCC2)C(c2cc(Br)cc(Br)c2)N1c1ccc2[nH]cnc2c1 (stereo not shown) [Compound 186]", "hQC (Homo sapiens, UniProt Q16769)", "IC50", "µM", 0.004],
  ["O=C1N/C(=N/CCc2c[nH]c3ccccc23)C(c2ccccc2F)N1CCCn1ccnc1 (stereo not shown) [Compound 61]", "hQC (Homo sapiens, UniProt Q16769)", "IC50", "µM", 2.2],
  ["O=C(C/N=C1/NC(=O)N(CCCn2ccnc2)C1c1ccc(F)cc1)N1CCc2ccccc2C1 (stereo not shown) [Compound 78]", "hQC (Homo sapiens, UniProt Q16769)", "IC50", "µM", 3.1],
  ["S=C1N/C(=N\\C2CCCC2)C(c2ccc(N3CCCC3)cc2)N1c1ccc2[nH]cnc2c1 (stereo not shown) [Compound 210]", "hQC (Homo sapiens, UniProt Q16769)", "IC50", "µM", 3.1],
  ["O=C(C/N=C1/NC(=O)N(CCCn2ccnc2)C1c1ccc(Cl)c(F)c1)N1CCc2ccccc2C1 (stereo not shown) [Compound 70]", "hQC (Homo sapiens, UniProt Q16769)", "IC50", "µM", 3.1],
  ["O=C1N/C(=N\\c2ccc3c(c2)OCCO3)C(c2ccc3c(c2)OCO3)N1c1ccc2[nH]cnc2c1 (stereo not shown) [Compound 292]", "hQC (Homo sapiens, UniProt Q16769)", "IC50", "µM", 1.3],
  ["Cc1ccc(C2/C(=N\\Cc3ccc4[nH]ccc4c3)NC(=S)N2c2ccc3[nH]cnc3c2)cc1 (stereo not shown) [Compound 145]", "hQC (Homo sapiens, UniProt Q16769)", "IC50", "µM", 4]
]}
